Data provenance is ChEMBL document CHEMBL1131702.

Species on record: Cavia porcellus
protocol: Effective refractory period of contractile response in isolated guinea-pig papillary muscles at 1 Hz and 1 uM.
Type: functional, Muscle tissue
Respond with true (1) for Delta ERPc values of 30% and above, false (0) for values below.

INSERT INTO measurements (compound, assigned_class) VALUES
  ('COc1ccc(CCN(C)CCOc2ccc(NS(C)(=O)=O)cc2[N+](=O)[O-])cc1OC', 'true (1)'),
  ('COc1ccc(CCN(C)CCOc2ccc(NS(C)(=O)=O)cc2-n2cccc2)cc1OC', 'true (1)'),
  ('CN(CCOc1ccc(NS(C)(=O)=O)cc1)CCc1ccc(NS(C)(=O)=O)cc1 [DOFETILIDE]', 'true (1)'),
  ('COc1cc(N)c(CCN(C)CCOc2ccc(NS(C)(=O)=O)cc2Cl)cc1OC', 'false (0)'),
  ('COc1ccc(CCN(C)CCOc2ccc(NS(C)(=O)=O)cc2C)cc1OC', 'false (0)'),
  ('COc1cc(C)c(CCN(C)CCOc2ccc(NS(C)(=O)=O)cc2Cl)cc1OC', 'false (0)'),
  ('COc1cc(N)c(CCN(C)CCOc2ccc(NS(C)(=O)=O)cc2-n2cccc2)cc1OC', 'true (1)'),
  ('COc1ccc(CCN(C)CCOc2ccc(NS(C)(=O)=O)cc2Br)cc1OC', 'true (1)'),
  ('COc1ccc(CCN(C)CCOc2ccc(NS(C)(=O)=O)cc2N)cc1OC', 'true (1)'),
  ('COc1ccc(CCN(C)CCOc2ccc(NS(C)(=O)=O)cc2Nc2nccs2)cc1OC', 'true (1)');
